test: Average particle diameter, microscopic method (Heywood circle-corresponding diameter)
Type: physicochemical
conditionSummary: 10 typical crystals on photograph, hydrochloride
Counter-ions that a name gives are not always drawn.
recordedMetric: Average particle diameter (μm)

Example entries and their recorded answers appear below.
compound: COc1cccc2c1C(=O)c1c(O)c3c(c(O)c1C2=O)C[C@@](O)(C(=O)CO)C[C@@H]3O[C@H]1C[C@H](N)[C@H](O)[C@H](C)O1 [Example 42, doxorubicin hydrochloride]
Average particle diameter [μm]: 34
//
compound: COc1cccc2c1C(=O)c1c(O)c3c(c(O)c1C2=O)C[C@@](O)(C(=O)CO)C[C@@H]3O[C@H]1C[C@H](N)[C@H](O)[C@H](C)O1 [Example 46, doxorubicin hydrochloride]
Average particle diameter [μm]: 86
//
compound: COc1cccc2c1C(=O)c1c(O)c3c(c(O)c1C2=O)C[C@@](O)(C(=O)CO)C[C@@H]3O[C@H]1C[C@H](N)[C@H](O)[C@H](C)O1 [Example 35, doxorubicin hydrochloride]
Average particle diameter [μm]: 20
//
compound: COc1cccc2c1C(=O)c1c(O)c3c(c(O)c1C2=O)C[C@@](O)(C(=O)CO)C[C@@H]3O[C@H]1C[C@H](N)[C@H](O)[C@H](C)O1 [Example 21, doxorubicin hydrochloride]
Average particle diameter [μm]: 54
//
compound: COc1cccc2c1C(=O)c1c(O)c3c(c(O)c1C2=O)C[C@@](O)(C(=O)CO)C[C@@H]3O[C@H]1C[C@H](N)[C@H](O)[C@H](C)O1 [Example 28, doxorubicin hydrochloride]
Average particle diameter [μm]: 37
//
compound: COc1cccc2c1C(=O)c1c(O)c3c(c(O)c1C2=O)C[C@@](O)(C(=O)CO)C[C@@H]3O[C@H]1C[C@H](N)[C@H](O)[C@H](C)O1 [Example 30, doxorubicin hydrochloride]
Average particle diameter [μm]: 39
//
compound: COc1cccc2c1C(=O)c1c(O)c3c(c(O)c1C2=O)C[C@@](O)(C(=O)CO)C[C@@H]3O[C@H]1C[C@H](N)[C@H](O)[C@H](C)O1 [Example 33, doxorubicin hydrochloride]
Average particle diameter [μm]: 25

[a] COc1cccc2c1C(=O)c1c(O)c3c(c(O)c1C2=O)C[C@@](O)(C(=O)CO)C[C@@H]3O[C@H]1C[C@H](N)[C@H](O)[C@H](C)O1 [Example 44, doxorubicin hydrochloride]
[b] COc1cccc2c1C(=O)c1c(O)c3c(c(O)c1C2=O)C[C@@](O)(C(=O)CO)C[C@@H]3O[C@H]1C[C@H](N)[C@H](O)[C@H](C)O1 [Example 20, doxorubicin hydrochloride]
QUERY: Which entry shows the lesser value of Average particle diameter here, a or b ? Bench note: the answer is the label of the chosen record.
RESULT: b

###

test: Average particle diameter, microscopic method (Heywood circle-corresponding diameter)
Format: physicochemical
conditionSummary: 10 typical crystals on photograph, hydrochloride
Source text: The average particle diameter is shown by a diameter of a circle having the same area as an injected area of the particle, a so-called Heywood diameter (circle-corresponding diameter) according to a microscopic method (injected image). A small amount of the crystals was put on a slide glass, and 1 to 2 drops of a hydrophilic surfactant (sesquioleic acid sorbitan) were fallen thereon to disperse them. […]
Counter-ions that a name gives are not always drawn.
recordedMetric: Average particle diameter (μm)

[1] COc1cccc2c1C(=O)c1c(O)c3c(c(O)c1C2=O)C[C@@](O)(C(=O)CO)C[C@@H]3O[C@H]1C[C@H](N)[C@H](O)[C@H](C)O1 [Example 19, doxorubicin hydrochloride]
[2] COc1cccc2c1C(=O)c1c(O)c3c(c(O)c1C2=O)C[C@@](O)(C(=O)CO)C[C@@H]3O[C@H]1C[C@H](N)[C@H](O)[C@H](C)O1 [Example 24, doxorubicin hydrochloride]
[3] COc1cccc2c1C(=O)c1c(O)c3c(c(O)c1C2=O)C[C@@](O)(C(=O)CO)C[C@@H]3O[C@H]1C[C@H](N)[C@H](O)[C@H](C)O1 [Example 57, doxorubicin hydrochloride]
QUERY: Which order do the above compounds take when sorted by rising Average particle diameter? Smallest first. List each label, following the requested order.
RESULT: 1, 3, 2
(1: 17 μm, 3: 35 μm, 2: 51 μm)
